Listing: IC50 of selected compounds
Target: HER2 YVMA (Ba/F3 cells) (Homo sapiens, UniProt P04626, INS775YVMA)
Construct: expressed in transfected cells; host or cells: Ba/F3
Sequence (P04626 with tags, fused parts or gaps INS775YVMA): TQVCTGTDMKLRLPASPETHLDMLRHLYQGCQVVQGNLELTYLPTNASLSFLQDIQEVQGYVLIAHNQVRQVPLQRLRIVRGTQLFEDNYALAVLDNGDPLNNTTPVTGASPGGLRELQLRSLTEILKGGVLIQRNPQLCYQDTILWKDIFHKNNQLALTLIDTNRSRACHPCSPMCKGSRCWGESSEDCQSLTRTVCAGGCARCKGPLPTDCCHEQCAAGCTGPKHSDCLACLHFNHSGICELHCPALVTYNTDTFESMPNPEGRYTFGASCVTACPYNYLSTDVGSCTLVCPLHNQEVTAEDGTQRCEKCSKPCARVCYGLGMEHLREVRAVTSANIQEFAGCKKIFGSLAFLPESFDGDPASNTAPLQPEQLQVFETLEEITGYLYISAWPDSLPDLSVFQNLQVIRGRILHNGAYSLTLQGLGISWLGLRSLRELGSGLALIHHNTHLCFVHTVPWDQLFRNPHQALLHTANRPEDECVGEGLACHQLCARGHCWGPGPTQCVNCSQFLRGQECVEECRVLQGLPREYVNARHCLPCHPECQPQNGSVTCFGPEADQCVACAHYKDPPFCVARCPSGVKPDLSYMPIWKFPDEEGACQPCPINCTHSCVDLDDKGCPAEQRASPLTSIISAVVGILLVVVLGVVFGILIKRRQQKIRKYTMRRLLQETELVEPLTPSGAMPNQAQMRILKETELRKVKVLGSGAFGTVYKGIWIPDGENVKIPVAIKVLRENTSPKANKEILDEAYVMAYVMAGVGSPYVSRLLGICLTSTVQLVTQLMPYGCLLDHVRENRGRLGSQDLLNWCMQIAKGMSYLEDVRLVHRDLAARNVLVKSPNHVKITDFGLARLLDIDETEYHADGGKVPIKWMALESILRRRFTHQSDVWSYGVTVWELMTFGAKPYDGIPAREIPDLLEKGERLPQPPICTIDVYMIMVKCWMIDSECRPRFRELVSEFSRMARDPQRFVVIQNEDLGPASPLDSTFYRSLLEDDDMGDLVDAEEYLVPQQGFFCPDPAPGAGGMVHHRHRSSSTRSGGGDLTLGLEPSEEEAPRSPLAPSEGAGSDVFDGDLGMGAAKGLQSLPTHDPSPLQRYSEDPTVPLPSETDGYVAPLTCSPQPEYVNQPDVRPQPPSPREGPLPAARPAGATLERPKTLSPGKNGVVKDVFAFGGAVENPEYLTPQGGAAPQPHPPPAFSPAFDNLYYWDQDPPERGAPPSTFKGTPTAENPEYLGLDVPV
Experiment: MTS assay, Ba/F3 cells, HER2 YVMA
Assay type: cell-based
Conditions: 72 hours
Use µM as the unit, but write only the number.

1) C=CC(=O)N1CCC[C@@H](n2nc(C(=O)Nc3ccc(-n4ccnc4)c(C)c3)c3c(N)ncnc32)C1 | 0.58

## Input Send back HER2 YVMA (Ba/F3 cells) (Homo sapiens, UniProt P04626, INS775YVMA) IC50 of C=CC(=O)N1CCC[C@@H](n2nc(C(=O)Nc3ccc(Cn4ccnc4)c(C)c3)c3c(N)ncnc32)C1 only.
## Output 3.16

## Input GET IC50 | system: HER2 YVMA (Ba/F3 cells) (Homo sapiens, UniProt P04626, INS775YVMA) | item: C=CC(=O)N1CCC[C@@H](n2nc(C(=O)Nc3cc(C)cc(CC(=O)N(C)C)c3)c3c(N)ncnc32)C1
## Output 4.47

###

Target: HER2 WT (Ba/F3 cells) (Homo sapiens, UniProt P04626)
Construct: expressed in transfected cells; host or cells: Ba/F3
Sequence (P04626 23-1255): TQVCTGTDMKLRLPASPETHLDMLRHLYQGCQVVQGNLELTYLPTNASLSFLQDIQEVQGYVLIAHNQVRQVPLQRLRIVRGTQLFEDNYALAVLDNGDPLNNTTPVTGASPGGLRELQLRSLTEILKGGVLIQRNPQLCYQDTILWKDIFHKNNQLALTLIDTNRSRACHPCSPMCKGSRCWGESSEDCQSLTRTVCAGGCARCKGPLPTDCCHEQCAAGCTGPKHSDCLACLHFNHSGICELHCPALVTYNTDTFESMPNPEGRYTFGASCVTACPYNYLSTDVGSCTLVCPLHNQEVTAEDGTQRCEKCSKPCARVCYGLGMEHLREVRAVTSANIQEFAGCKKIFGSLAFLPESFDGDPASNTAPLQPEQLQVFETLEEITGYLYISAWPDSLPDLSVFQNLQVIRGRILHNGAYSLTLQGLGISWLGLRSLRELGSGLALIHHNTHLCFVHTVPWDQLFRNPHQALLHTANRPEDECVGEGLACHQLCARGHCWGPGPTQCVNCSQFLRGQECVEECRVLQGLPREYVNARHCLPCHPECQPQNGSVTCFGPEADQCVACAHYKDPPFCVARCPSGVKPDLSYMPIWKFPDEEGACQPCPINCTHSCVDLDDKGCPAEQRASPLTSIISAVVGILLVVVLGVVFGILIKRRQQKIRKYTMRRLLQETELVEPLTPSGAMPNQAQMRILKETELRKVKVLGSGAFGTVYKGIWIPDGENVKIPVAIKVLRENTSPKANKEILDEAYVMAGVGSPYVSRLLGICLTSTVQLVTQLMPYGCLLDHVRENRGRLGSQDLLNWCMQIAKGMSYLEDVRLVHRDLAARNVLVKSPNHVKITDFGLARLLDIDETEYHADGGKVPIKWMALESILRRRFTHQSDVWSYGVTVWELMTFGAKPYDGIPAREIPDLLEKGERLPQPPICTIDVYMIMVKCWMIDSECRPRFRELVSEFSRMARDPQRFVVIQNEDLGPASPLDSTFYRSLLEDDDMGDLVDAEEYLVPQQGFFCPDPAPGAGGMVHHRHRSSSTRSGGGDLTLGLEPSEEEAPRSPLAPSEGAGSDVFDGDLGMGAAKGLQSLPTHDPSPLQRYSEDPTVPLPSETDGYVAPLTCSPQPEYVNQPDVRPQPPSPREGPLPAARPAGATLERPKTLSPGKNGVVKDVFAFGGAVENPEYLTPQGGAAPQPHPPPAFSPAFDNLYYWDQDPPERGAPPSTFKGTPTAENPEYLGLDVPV
Assay: MTS assay, Ba/F3 cells, HER2 WT
Assay type: cell-based
Conditions: 72 hours
Items are presented alongside their recorded IC50.
// return numeric value only (unit: µM, not printed)

1) C=CC(=O)N1CCC[C@@H](n2nc(C(=O)Nc3ccc(CC(=O)N(C)C)c(C)c3C)c3c(N)ncnc32)C1 [TAS0728, reference compound] | 0.164
2) C=CC(=O)N1CCC[C@@H](n2nc(C(=O)Nc3ccc(-n4ccnc4)c(C)c3)c3c(N)ncnc32)C1 | 3.43
3) C=CC(=O)N1CCC[C@@H](n2nc(C(=O)Nc3ccc(C(=O)N4CCn5ncnc5C4)c(C)c3)c3c(N)ncnc32)C1 | 6.3
4) C=CC(=O)N1CCC[C@@H](n2nc(C(=O)Nc3ccc(Cn4cncn4)c(C)c3)c3c(N)ncnc32)C1 | 5.96
5) C=CC(=O)N1CCC[C@@H](n2nc(C(=O)Nc3cc(C)cc(CC(=O)N(C)C)c3)c3c(N)ncnc32)C1 | 4.08

## Input Identify measured IC50 associated with C=CC(=O)N1CCC[C@@H](n2nc(C(=O)Nc3ccc(Cn4ccnc4)c(C)c3)c3c(N)ncnc32)C1
## Output 3.85

## Input Give reported IC50 value for C=CC(=O)N1CCC[C@@H](n2nc(C(=O)Nc3ccc(Oc4ccn5ncnc5c4)c(C)c3)c3c(N)ncnc32)C1
## Output 0.193

###

Target: HER2 YVMA (Ba/F3 cells) (Homo sapiens, UniProt P04626, INS775YVMA)
Construct: expressed in transfected cells; host or cells: Ba/F3
Test: MTS assay, Ba/F3 cells, HER2 YVMA
Type: cell-based
Conditions: 72 hours
Entries and their log10 of IC50
Reminder: these figures are log10 of reported IC50, in µM before transformation.

Known log10 of IC50 results, listed for orientation:
1. C=CC(=O)N1CCC[C@@H](n2nc(C(=O)Nc3ccc(C(=O)N4CCn5ccnc5C4)c(C)c3)c3c(N)ncnc32)C1 | 0.88
2. C=CC(=O)N1CCC[C@@H](n2nc(C(=O)Nc3ccc(CN4CCn5ncnc5C4)c(C)c3)c3c(N)ncnc32)C1 | 0.27
3. C=CC(=O)N1CCC[C@@H](n2nc(C(=O)Nc3ccc(Oc4ccn5ncnc5c4)c(C)c3)c3c(N)ncnc32)C1 | -1.25
4. C=CC(=O)N1CCC[C@@H](n2nc(C(=O)Nc3ccc(CC(=O)N(C)C)c(C)c3C)c3c(N)ncnc32)C1 [TAS0728, reference compound] | -0.69
5. C=CC(=O)N1CCC[C@@H](n2nc(C(=O)Nc3ccc(Oc4ccn5ncnc5c4)c(C)c3C)c3c(N)ncnc32)C1 | -1.49
6. C=CC(=O)N1CCC[C@@H](n2nc(C(=O)Nc3ccc(Cn4cncn4)c(C)c3)c3c(N)ncnc32)C1 | 0.12
7. C=CC(=O)N1CCC[C@@H](n2nc(C(=O)Nc3ccc(CN4CCn5ccnc5C4)c(C)c3)c3c(N)ncnc32)C1 | 0.14
8. C=CC(=O)N1CCC[C@@H](n2nc(C(=O)Nc3ccc(C(=O)N4CCn5ncnc5C4)c(C)c3)c3c(N)ncnc32)C1 | 0.95

Lab note: next compound to report on.
## Input // Input: C=CC(=O)N1CCC[C@@H](n2nc(C(=O)Nc3ccc(Oc4ccn5ncnc5c4)c(Cl)c3)c3c(N)ncnc32)C1 . Output its log10 of IC50 only.
## Output -1.34
